B1: AUP1 (parent)
chain: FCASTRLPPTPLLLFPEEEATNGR

- Variants of: B1
- ASSAY TEXT: protein stability index of a GFP-peptide fusion (GPS, HEK-293T) (PSI 1-6); higher = more stable;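 further: lentivirally expressed fusions sorted by FACS into six bins by GFP to DsRed ratio, PSI derived from sequencing read proportions per bin multiplied by bin number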
- CONDITION SUMMARY: c terminus: a fixed tail appended
# maps each entry to its protein stability index

SEQ STRING	READOUT LABEL	RESULT
FCASTRLPPTPLLLFPEEEYTNGR [A20Y]	protein stability index	2.48

[Q] Given the variant FCAWTRLPPTPLLLFPEEEATNGR [S4W] , what is its reported protein stability index?
[A] 3.38

[Q] Also FCASTRLPPTPLLLFPEEEATNVR [G23V] , if possible.
[A] 2.91

[Q] Also FCASTRLPPTPLLLFTEEEATNGR [P16T] , if possible.
[A] 1.74

[Q] Also FCASTRLPPTPLLLFPEEEDTNGR [A20D] , if possible.
[A] 3.12

[Q] Also FCASTRLPPTPLLLFPYEEATNGR [E17Y] , if possible.
[A] 2.47

[Q] Also FCASTRLPPTPLLLFPEEDATNGR [E19D] , if possible.
[A] 2.68

[Q] Also FCASTRLPPTPLLLFPEELATNGR [E19L] , if possible.
[A] 2.19

Cited source for all entries: the supplement of paper PMC10567573
